Consider the following compounds; for each one, report its Viscosity.
experiment notes: Viscosity of monomers at 25° C.
Assay type: physicochemical
condition context: measured value at 25° C.

Which Viscosity is listed for C=C(C)C(=O)OCC1COC(C)(CC)O1 (centres unmarked) ?
5.1 mPa · s

Another compound to look at: C=C(C)C(=O)OCC(CC)(COC(=O)C(=C)C)COC(=O)C(=C)C [Trimethylolpropane trimethacrylate]
42 mPa · s

Another compound to look at: C=CC(=O)OCC(C)OCC(C)OCC(C)OC(=O)C=C (centres unmarked) [Tripropylene glycol diacrylate]
12 mPa · s

Another compound to look at: C=CC(=O)N1CCOCC1
12 mPa · s

Another compound to look at: C=CC(=O)OCCOc1ccccc1 [Phenoxyethyl acrylate]
3.3 mPa · s

Another compound to look at: C=C(C)C(=O)OCCCCCCOC(=O)C(=C)C [1,6-Hexanediol dimethacrylate]
6 mPa · s

Another compound to look at: C=C(C)C(=O)OCCCCOC(=O)C(=C)C [1,4-Butanediol dimethacrylate]
7 mPa · s

Another compound to look at: C=C(C)C(=O)OCC(O)COC(=O)C(=C)C [2-Hydroxy-1,3-dimethacryloxypropane]
37 mPa · s

Another compound to look at: C=C(C)C(=O)OCC(C)(C)COC(=O)C(=C)C [Neopentyl glycol dimethacrylate]
7 mPa · s

Another compound to look at: C=CC(=O)OCC1COC(C)(CC(C)C)O1 (centres unmarked)
5.3 mPa · s

Another compound to look at: C=CC(=O)O[C@@H]1C[C@H]2CC[C@]1(C)C2(C)C [Isobonyl acrylate]
2.6 mPa · s

---

experiment notes: Viscosity of monomers at 25° C.
Format: physicochemical
condition context: measured value at 25° C.
Consider the following compounds; for each one, report its Viscosity.
Give just the number in mPa · s; leave the unit off.

Which Viscosity is listed for C=CC(=O)OCCOCCOC [Methoxy diethylene glycol monoacrylate] ?
2

Another compound to look at: C=C(C)C(=O)OCCOC(=O)C(=C)C [Ethylene glycol dimethacrylate]
3

Another compound to look at: C=CC(=O)OCCCCCCCCCOC(=O)C=C [1,9-Nonanediol diacrylate]
21

Another compound to look at: C=C(C)C(=O)OCCOCCOCCOCCOC(=O)C(=C)C [Tetraethylene glycol dimethacrylate]
14

Another compound to look at: C=C(C)C(=O)OCCOCCOC(=O)C(=C)C [Diethylene glycol dimethacrylate]
5
